- System: EKVX NSCLC
- PROTOCOL DESCRIPTION: NCI tumour cell line growth inhibition, 48 h
MEASURED ATTRIBUTE: TGI

[[record]]
item_smiles = "S=P(c1ccccc1)(c1ccccc1)C1(C2(P(=S)(c3ccccc3)c3ccccc3)CC2)CC1"
result = "> 100 µM"

[[record]]
item_smiles = "O=c1[nH]c2ccc(CC(=S)N3CCN(c4ccccc4)CC3)cc2o1"
result = "> 100 µM"

[[record]]
item_smiles = "COc1ccc(Nc2nc(N)c(C(=O)c3ccccc3)s2)cc1"
result = "58.2 µM"

[[record]]
item_smiles = "CNC(=O)c1cncc(/C=C/c2c(C)cccc2C)c1"
result = "> 25 µM"

[[record]]
item_smiles = "CC(=N/NC(=S)N1CCCCC1)/C(C)=N\\NC(=S)N1CCCCC1"
result = "3.11 µM"


All figures here come from PubChem BioAssay (NCI).
